Record form. Attribute: Normal melting temperature. Fill in for each entry.
# experimentalConditions: Crystal; DTA
Hi! Could you send only the number? It should be in °C, unit omitted.

Provide one value: measured Normal melting temperature of NCCCCCCCCN
51.73

State its Normal melting temperature for this molecule: c1ccc(-c2ccccc2)cc1
69.22

Supply reported Normal melting temperature belonging to this molecule: NCCCCCCN
38.5

Provide measured Normal melting temperature value, entry: NCCCCCCCCCCCCN
68.69

---

Give Molar enthalpy of transition or fusion for every item shown.
# methodSummary: Molar enthalpy of transition or fusion
# experimentalConditions: Crystal; DSC

Give reported Molar enthalpy of transition or fusion value for NCCCCCCCCCCCCN
16 kcal/mol

Note down Molar enthalpy of transition or fusion recorded for NCCCCCCN
9.41 kcal/mol

Please report Molar enthalpy of transition or fusion for the following compound: NCCCCCCCCN
12.1 kcal/mol

Tell me Molar enthalpy of transition or fusion reported for c1ccc(-c2ccccc2)cc1
4.71 kcal/mol
